- tgt: caspase-like activity of purified rabbit 20S proteasomes (Oryctolagus cuniculus, UniProt G1T235)
- method.description: In vitro inhibition of caspase-like activity of purified rabbit muscle 20S proteasome (Z-LLE-AMC)
- Format: biochemical
- experimental.parameters: IC50 Values, XVI-1A obtained synthetically, purified rabbit 20S proteasome

[
  {
    "compound": "C[C@@]12OC(=O)[C@]1([C@@H](O)[C@@H]1C=CCCC1)NC(=O)[C@@H]2CCCl [XVI-1A, Salinosporamide A]",
    "IC50, nM": 467
  }
]
